- System: HeLa
- METHOD_DESCRIPTION: Cytotoxicity against human HeLa cells after 24 hrs by MTT colorimetric assay
- Type: functional, cell-based
REPORTED_METRIC: IC50

compound="O=C(CN1CCCCC1)N1CCN(C2(c3ccccc3)C3CC4CC(C3)CC2C4)CC1 (stereo unspecified)" reported_metric=IC50 test_result="12.4 µM"
compound="O=C(CN1CCCCC1)N1CCN(C2(c3ccc(F)cc3)C3CC4CC(C3)CC2C4)CC1 (stereo unspecified)" reported_metric=IC50 test_result="8.4 µM"
compound="Fc1ccc(C2(N3CCNCC3)C3CC4CC(C3)CC2C4)cc1.O=C(O)/C=C\\C(=O)O (stereo unspecified)" reported_metric=IC50 test_result="12.9 µM"
compound="O=C(c1ccc(Cl)s1)N1CCN(C2(c3ccccc3)C3CC4CC(C3)CC2C4)CC1 (stereo unspecified)" reported_metric=IC50 test_result="12.8 µM"
compound="CCOC(=O)N1CCN(C2(c3ccccc3)C3CC4CC(C3)CC2C4)CC1 (stereo unspecified)" reported_metric=IC50 test_result="23 µM"
compound="Nc1ccn([C@@H]2O[C@H](CO)[C@@H](O)C2(F)F)c(=O)n1 [GEMCITABINE]" reported_metric=IC50 test_result="3.3 µM"
compound="CN1CCN(C2(c3ccc(F)cc3)C3CC4CC(C3)CC2C4)CC1 (stereo unspecified)" reported_metric=IC50 test_result="15.3 µM"
compound="CN1CCN(C2(c3ccccc3)C3CC4CC(C3)CC2C4)CC1 (stereo unspecified)" reported_metric=IC50 test_result="17.4 µM"
compound="O=C(O)/C=C\\C(=O)O.c1ccc(C2(N3CCNCC3)C3CC4CC(C3)CC2C4)cc1 (stereo unspecified)" reported_metric=IC50 test_result="9.2 µM"
compound="O=C(N1CCN(C2(c3ccccc3)C3CC4CC(C3)CC2C4)CC1)n1ccnc1 (stereo unspecified)" reported_metric=IC50 test_result="12.2 µM"
compound="CCOC(=O)N1CCN(C2(c3ccc(F)cc3)C3CC4CC(C3)CC2C4)CC1 (stereo unspecified)" reported_metric=IC50 test_result="14.5 µM"
